Reference source for all entries: the antibiotic and cytotoxicity screens of Wong et al. (2023)

test system: HepG2; experiment: cytotoxicity call (relative viability < 0.9); conditions: 10 µM
About 3,300 (8.5%) of roughly 39,000 compounds were called active. For the sample, actives were picked, then their nearest neighbours and some compounds at random.

# Structure Notation, cytotoxicity call
rows = [
    ("Cc1noc(C)c1S(=O)(=O)N(C)C[C@@H]1Oc2c(NS(=O)(=O)c3ccccc3)cccc2C(=O)N([C@H](C)CO)C[C@@H]1C", "inactive"),
    ("C[C@@H]1CN([C@@H](C)CO)S(=O)(=O)c2ccc(C#CCN(C)C)cc2O[C@H]1CN(C)Cc1ccc(F)cc1", "inactive"),
    ("O=C(O)c1oc2ccccc2c1CSc1ccc(Cl)cc1", "inactive"),
]
